# system: PDE10A
# testProtocol: Diaxonhit phosphodiesterase assay (TR-FRET, LANCE cAMP kit), PDE10A
pIC50: −log10 of the molar value. Structures can show the parent of a compound that is named as a salt.
Below, each entry is listed alongside its reported pIC50.
measuredAttribute: pIC50

{"compound": "CCCc1ncc(Cc2ccc3nc(C)ccc3c2)c2cc(OC)c(OC)cc12 [Compound 57, dihydrochloride]", "system": "PDE10A", "measuredAttribute": "pIC50", "numericReadout": 7.70}
{"compound": "CCc1ncc(Cc2ccc3cccc(O)c3n2)c2cc(OC)c(OC)cc12 [Compound 83]", "system": "PDE10A", "measuredAttribute": "pIC50", "numericReadout": 7.96}
{"compound": "COc1cc2c(Cc3ccc4cccc(N)c4n3)cnc(C)c2cc1OC [Compound 152]", "system": "PDE10A", "measuredAttribute": "pIC50", "numericReadout": 7.89}
{"compound": "COc1cc2c(Cc3cnc4ccccc4c3)cnc(C)c2cc1OC [Compound 26, dihydrochloride]", "system": "PDE10A", "measuredAttribute": "pIC50", "numericReadout": 7.31}
{"compound": "COc1cc2cncc(Cc3ccc4cccc(OC)c4n3)c2cc1OC [Compound 21, dihydrochloride]", "system": "PDE10A", "measuredAttribute": "pIC50", "numericReadout": 7.34}
{"compound": "COc1cc2cncc(Cc3ccc4sccc4c3)c2cc1OC [Compound 3, hydrochloride]", "system": "PDE10A", "measuredAttribute": "pIC50", "numericReadout": 7.00}
{"compound": "CCCc1ncc(Cc2cc3cc(OC)ccc3nc2O)c2cc(OC)c(OC)cc12 [Compound 49, dihydrochloride]", "system": "PDE10A", "measuredAttribute": "pIC50", "numericReadout": 7.20}
{"compound": "CCCc1ncc(Cc2cnc3ccc(OP(=O)(O)O)cc3c2)c2cc(OC)c(OC)cc12 [Compound 171, phosphate]", "system": "PDE10A", "measuredAttribute": "pIC50", "numericReadout": 7.21}
{"compound": "COc1cc2cncc(Cc3cnc4ccc(O)c(C(F)(F)F)c4c3)c2cc1OC [Compound 161]", "system": "PDE10A", "measuredAttribute": "pIC50", "numericReadout": 8.22}
{"compound": "CCc1ncc(Cc2ccc3cccc(CNS(N)(=O)=O)c3n2)c2cc(OC)c(OC)cc12 [Compound 94]", "system": "PDE10A", "measuredAttribute": "pIC50", "numericReadout": 7.89}
{"compound": "CCCc1ncc(Cc2ccc3cccc(OCC(=O)NC4CC4)c3n2)c2cc(OC)c(OC)cc12 [Compound 126]", "system": "PDE10A", "measuredAttribute": "pIC50", "numericReadout": 7.15}
{"compound": "CCCc1ncc(Cc2cc3cc(OC)ccc3nc2NCCNC(C)=O)c2cc(OC)c(OC)cc12 [Compound 76, dihydrochloride]", "system": "PDE10A", "measuredAttribute": "pIC50", "numericReadout": 7.96}
{"compound": "CCc1ncc(Cc2cnc3ccc(N(C)S(C)(=O)=O)cc3c2)c2cc(OC)c(OC)cc12 [Compound 101]", "system": "PDE10A", "measuredAttribute": "pIC50", "numericReadout": 7.37}
{"compound": "CCNc1nc2ccc(OC)cc2cc1Cc1cncc2cc(OC)c(OC)cc12 [Compound 113, dihydrochloride]", "system": "PDE10A", "measuredAttribute": "pIC50", "numericReadout": 7.49}
{"compound": "CCOC(=O)COc1cccc2ccc(Cc3cnc(CC)c4cc(OC)c(OC)cc34)nc12 [Compound 128]", "system": "PDE10A", "measuredAttribute": "pIC50", "numericReadout": 7.23}
{"compound": "CCOC(=O)C(=O)Nc1cccc2ccc(Cc3cnc(CC)c4cc(OC)c(OC)cc34)nc12 [Compound 92]", "system": "PDE10A", "measuredAttribute": "pIC50", "numericReadout": 6.31}
{"compound": "COc1cc2c(Cc3ccc4nc(C)ccc4c3)cnc(C)c2cc1OC [Compound 105, dihydrochloride]", "system": "PDE10A", "measuredAttribute": "pIC50", "numericReadout": 8.37}
{"compound": "COc1cc2cncc(Cc3ccc4cccc(OCCO)c4n3)c2cc1OC [Compound 42, dihydrochloride]", "system": "PDE10A", "measuredAttribute": "pIC50", "numericReadout": 7.38}
{"compound": "COC(=O)c1ccc(-c2nc3cc(Cc4cncc5cc(OC)c(OC)cc45)ccc3o2)cc1 [Compound 115]", "system": "PDE10A", "measuredAttribute": "pIC50", "numericReadout": 7.21}
{"compound": "CCCc1ncc(Cc2cc3cc(OC)ccc3nc2NC)c2cc(OC)c(OC)cc12 [Compound 129]", "system": "PDE10A", "measuredAttribute": "pIC50", "numericReadout": 8.02}
{"compound": "CCc1ncc(Cc2cnc3ccc(NC(=O)C(N)=O)cc3c2)c2cc(OC)c(OC)cc12 [Compound 98]", "system": "PDE10A", "measuredAttribute": "pIC50", "numericReadout": 8.46}
{"compound": "CCCc1ncc(Cc2cc3cc(C)ccc3nc2O)c2cc(OC)c(OC)cc12 [Compound 54, dihydrochloride]", "system": "PDE10A", "measuredAttribute": "pIC50", "numericReadout": 6.82}
{"compound": "CCCc1ncc(Cc2ccc3oc(=O)n(CC(N)=O)c3c2)c2cc(OC)c(OC)cc12 [Compound 148]", "system": "PDE10A", "measuredAttribute": "pIC50", "numericReadout": 7.06}
{"compound": "COc1cc2cnc(C)c(Cc3cnc4ccccc4c3)c2cc1OC [Compound 43]", "system": "PDE10A", "measuredAttribute": "pIC50", "numericReadout": 7.41}
{"compound": "CCCc1ncc(Cc2cnc3ccc(OCC(N)=O)cc3c2)c2cc(OC)c(OC)cc12 [Compound 144]", "system": "PDE10A", "measuredAttribute": "pIC50", "numericReadout": 8.19}
